Test system: antibodies in sera from SARS patients (sera 1a, 1b, 2, 6, 37, 62, London, SARS-yellow, SARS-green)
Type: binding, human
Parameters: unit not given here
# Binding of serum 1a to looped/cyclic peptides of protein N of SARS-CoV Urbani listing for each entry below
Reply with just the number.

In the examples that follow, each entry is paired with its recorded Binding of serum 1a to looped/cyclic peptides of protein N of SARS-CoV Urbani.
Q: Please report the recorded Binding of serum 1a to looped/cyclic peptides of protein N of SARS-CoV Urbani for ASWFTALTQHGKEEL .
Ans: 0.2

Q: Please report the recorded Binding of serum 1a to looped/cyclic peptides of protein N of SARS-CoV Urbani for WPQIAQFAPSASAFF .
Ans: 0.5

Then there is this sequence:
Q: Please report the recorded Binding of serum 1a to looped/cyclic peptides of protein N of SARS-CoV Urbani for QQQQGQTVTKKSAAE .
Ans: 0.3
